- System: human red blood cells (hRBC)
- experimentSummary: Hemolysis
Where a SMILES comes first, the peptide text is derived from it.
observedProperty: Hemolysis at 100 μM % (%)
Just the number in %, nothing appended.

INSERT INTO measurements (compound, unittag, result) VALUES
  ('C[C@@H](O)[C@@H]1NC(=O)[C@@H]2CSSC[C@H](NC(=O)[C@H](CC3CCCCC3)NC(=O)[C@@H]3CCCN3C(=O)[C@@H]3CCCN3C(=O)[C@H](CC(=O)O)NC(=O)[C@H](CO)NC(=O)[C@H](CCCCN)NC1=O)C(=O)N[C@@H](CO)C(=O)N1CCC[C@@H]1C(=O)N1CCC[C@H]1C(=O)N[C@@H](Cc1ccccc1)C(=O)N2 [Ex. 16] (HELM PEPTIDE1{F.C.T.K.S.D.P.P.[Cha].C.S.[dP].P}$PEPTIDE1,PEPTIDE1,2:R3-10:R3|PEPTIDE1,PEPTIDE1,1:R1-13:R2$$$V2.0)', '%', 0.1);

Given the compound CCCC[C@@H]1NC(=O)[C@@H]2CCCN2C(=O)[C@H]2CCCN2C(=O)[C@H](Cc2ccc(O)cc2)NC(=O)[C@@H]2CSSC[C@H](NC1=O)C(=O)N[C@@H]([C@@H](C)O)C(=O)N[C@@H](CCCCN)C(=O)N[C@@H](CO)C(=O)N[C@@H](CC(=O)O)C(=O)N1CCC[C@H]1C(=O)N1CCC[C@H]1C(=O)N[C@@H]([C@@H](C)CC)C(=O)N2 [Ex. 44] (HELM PEPTIDE1{[Nle].C.T.K.S.D.P.P.I.C.Y.[dP].P}$PEPTIDE1,PEPTIDE1,2:R3-10:R3|PEPTIDE1,PEPTIDE1,1:R1-13:R2$$$V2.0) , what is its reported Hemolysis at 100 μM %?
0.1

Given the compound CC[C@H](C)[C@@H]1NC(=O)[C@@H]2CCCN2C(=O)[C@@H]2CCCN2C(=O)[C@H](CC(=O)O)NC(=O)[C@H](CO)NC(=O)[C@H](CCCCN)NC(=O)[C@H]([C@@H](C)O)NC(=O)[C@@H]2CSSC[C@H](NC1=O)C(=O)N[C@@H]([C@@H](C)O)C(=O)N1CCC[C@@H]1C(=O)N1CCC[C@H]1C(=O)N[C@@H](C1CCCCC1)C(=O)N2 [Ex. 38] (HELM PEPTIDE1{[O=C([C@@H](N[*:1])C1CCCCC1)[*:2]].C.T.K.S.D.P.P.I.C.T.[dP].P}$PEPTIDE1,PEPTIDE1,2:R3-10:R3|PEPTIDE1,PEPTIDE1,1:R1-13:R2$$$V2.0) , what is its reported Hemolysis at 100 μM %?
0

Given the compound CCCC[C@@H]1NC(=O)[C@@H]2CCCN2C(=O)[C@@H]2CCCN2C(=O)[C@H](CC(=O)O)NC(=O)[C@H](CO)NC(=O)[C@H](CCCCN)NC(=O)[C@H]([C@@H](C)O)NC(=O)[C@@H]2CSSC[C@H](NC1=O)C(=O)N[C@@H](CCCNC(=N)N)C(=O)N1CCC[C@@H]1C(=O)N1CCC[C@H]1C(=O)N[C@@H]([C@@H](C)CC)C(=O)N2 [Ex. 57] (HELM PEPTIDE1{I.C.T.K.S.D.P.P.[Nle].C.R.[dP].P}$PEPTIDE1,PEPTIDE1,2:R3-10:R3|PEPTIDE1,PEPTIDE1,1:R1-13:R2$$$V2.0) , what is its reported Hemolysis at 100 μM %?
0

Given the compound CC[C@H](C)[C@@H]1NC(=O)[C@@H]2CCCN2C(=O)[C@H]2CCCN2C(=O)[C@H](CCCNC(=N)N)NC(=O)[C@@H]2CSSC[C@H](NC1=O)C(=O)N[C@@H]([C@@H](C)O)C(=O)N[C@@H](CCCCN)C(=O)N[C@@H](CO)C(=O)N[C@@H](CC(=O)O)C(=O)N1CCC[C@H]1C(=O)N1CCC[C@H]1C(=O)N[C@@H](CCC(N)=O)C(=O)N2 [Ex. 17] (HELM PEPTIDE1{I.C.T.K.S.D.P.P.Q.C.R.[dP].P}$PEPTIDE1,PEPTIDE1,2:R3-10:R3|PEPTIDE1,PEPTIDE1,1:R1-13:R2$$$V2.0) , what is its reported Hemolysis at 100 μM %?
0.1

Given the compound CC[C@H](C)[C@@H]1NC(=O)[C@@H]2CCCN2C(=O)[C@H]2CCCN2C(=O)[C@H](CCCNC(=N)N)NC(=O)[C@@H]2CSSC[C@H](NC1=O)C(=O)N[C@@H]([C@@H](C)O)C(=O)N[C@@H](CCCCN)C(=O)N[C@@H](CO)C(=O)N[C@@H](CC(=O)O)C(=O)N1CCC[C@H]1C(=O)N1CCC[C@H]1C(=O)N[C@@H](CC1CCCCC1)C(=O)N2 [Ex. 58] (HELM PEPTIDE1{I.C.T.K.S.D.P.P.[Cha].C.R.[dP].P}$PEPTIDE1,PEPTIDE1,2:R3-10:R3|PEPTIDE1,PEPTIDE1,1:R1-13:R2$$$V2.0) , what is its reported Hemolysis at 100 μM %?
0

Given the compound CC[C@H](C)[C@@H]1NC(=O)[C@@H]2CCCN2C(=O)[C@@H]2CCCN2C(=O)[C@H](CC(=O)O)NC(=O)[C@H](CO)NC(=O)[C@H](CCCCN)NC(=O)[C@H]([C@@H](C)O)NC(=O)[C@@H]2CSSC[C@H](NC1=O)C(=O)N[C@@H](Cc1ccc(O)cc1)C(=O)N1CCC[C@@H]1C(=O)N1CCC[C@H]1C(=O)N[C@@H](CC1CCCCC1)C(=O)N2 [Ex. 36] (HELM PEPTIDE1{[Cha].C.T.K.S.D.P.P.I.C.Y.[dP].P}$PEPTIDE1,PEPTIDE1,2:R3-10:R3|PEPTIDE1,PEPTIDE1,1:R1-13:R2$$$V2.0) , what is its reported Hemolysis at 100 μM %?
0

Given the compound CC[C@H](C)[C@@H]1NC(=O)[C@@H]2CCCN2C(=O)[C@H]2CCCN2C(=O)[C@H](CCCNC(=N)N)NC(=O)[C@@H]2CSSC[C@H](NC1=O)C(=O)N[C@@H]([C@@H](C)O)C(=O)N[C@@H](CCCCN)C(=O)N[C@@H](CO)C(=O)N[C@@H](CC(=O)O)C(=O)N1CCC[C@H]1C(=O)N1CCC[C@H]1C(=O)N[C@@H](Cc1ccc(O)cc1)C(=O)N2 [Ex. 18] (HELM PEPTIDE1{I.C.T.K.S.D.P.P.Y.C.R.[dP].P}$PEPTIDE1,PEPTIDE1,2:R3-10:R3|PEPTIDE1,PEPTIDE1,1:R1-13:R2$$$V2.0) , what is its reported Hemolysis at 100 μM %?
0

----------
- subjectOfTest: Elastase from human neutrophils (Homo sapiens, UniProt P08246)
- Sequence (P08246 30-267): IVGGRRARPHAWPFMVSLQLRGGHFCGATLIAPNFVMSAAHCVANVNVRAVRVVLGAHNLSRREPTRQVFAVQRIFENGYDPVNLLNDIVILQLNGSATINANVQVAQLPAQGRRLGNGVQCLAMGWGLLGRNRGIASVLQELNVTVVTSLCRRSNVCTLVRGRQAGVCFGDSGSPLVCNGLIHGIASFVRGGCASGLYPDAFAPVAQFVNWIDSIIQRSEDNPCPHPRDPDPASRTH
- experimentSummary: Enzymatic assay, elastase
- runConditions: Elastase IC50
Where a SMILES comes first, the peptide text is derived from it.
observedProperty: pIC50
Please note pIC50 is a logarithmic value: minus log10 of concentration in mol/L. Answer with that number alone.

Study these solved cases before continuing.
INSERT INTO measurements (compound, subjectoftest, observedproperty, result) VALUES
  ('CC[C@H](C)[C@@H]1NC(=O)[C@@H]2CCCN2C(=O)[C@@H]2CCCN2C(=O)[C@H](CC(=O)O)NC(=O)[C@H](CO)NC(=O)[C@H](CCCCN)NC(=O)[C@H]([C@@H](C)O)NC(=O)[C@@H]2CSSC[C@H](NC1=O)C(=O)N[C@@H](Cc1ccc(O)cc1)C(=O)N1CCC[C@@H]1C(=O)N1CCC[C@H]1C(=O)N[C@@H](CCc1ccccc1)C(=O)N2 [Ex. 30] (HELM PEPTIDE1{[O=C([C@H](CCc1ccccc1)N[*:1])[*:2]].C.T.K.S.D.P.P.I.C.Y.[dP].P}$PEPTIDE1,PEPTIDE1,2:R3-10:R3|PEPTIDE1,PEPTIDE1,1:R1-13:R2$$$V2.0)', 'Elastase from human neutrophils (Homo sapiens, UniProt P08246)', 'pIC50', 4.30),
  ('CCCC[C@@H]1NC(=O)[C@@H]2CCCN2C(=O)[C@H]2CCCN2C(=O)[C@H](Cc2ccccc2)NC(=O)[C@@H]2CSSC[C@H](NC1=O)C(=O)N[C@@H]([C@@H](C)O)C(=O)N[C@@H](C)C(=O)N[C@@H](CO)C(=O)N[C@@H]([C@@H](C)CC)C(=O)N1CCC[C@H]1C(=O)N1CCC[C@H]1C(=O)N[C@@H](CCC(N)=O)C(=O)N2 [Ex. 90] (HELM PEPTIDE1{[Nle].C.T.A.S.I.P.P.Q.C.F.[dP].P}$PEPTIDE1,PEPTIDE1,2:R3-10:R3|PEPTIDE1,PEPTIDE1,1:R1-13:R2$$$V2.0)', 'Elastase from human neutrophils (Homo sapiens, UniProt P08246)', 'pIC50', 7.68),
  ('CCCC[C@@H]1NC(=O)[C@@H]2CCCN2C(=O)[C@H]2CCCN2C(=O)[C@H](c2ccccc2)NC(=O)[C@@H]2CSSC[C@H](NC1=O)C(=O)N[C@@H]([C@@H](C)O)C(=O)N[C@@H](C)C(=O)N[C@@H](CO)C(=O)N[C@@H]([C@@H](C)CC)C(=O)N1CCC[C@H]1C(=O)N1CCC[C@H]1C(=O)N[C@@H](CCC(N)=O)C(=O)N2 [Ex. 98] (HELM PEPTIDE1{[Nle].C.T.A.S.I.P.P.Q.C.[Phg].[dP].P}$PEPTIDE1,PEPTIDE1,2:R3-10:R3|PEPTIDE1,PEPTIDE1,1:R1-13:R2$$$V2.0)', 'Elastase from human neutrophils (Homo sapiens, UniProt P08246)', 'pIC50', 7.68),
  ('CC[C@H](C)[C@@H]1NC(=O)[C@H](CO)NC(=O)[C@H](C)NC(=O)[C@H]([C@@H](C)O)NC(=O)[C@H](CCC(N)=O)NC(=O)[C@H](CCc2ccccc2)NC(=O)[C@@H]2CCCN2C(=O)[C@H]2CCCN2C(=O)[C@H](Cc2ccc(O)cc2)NC(=O)[C@H]([C@@H](C)O)NC(=O)[C@H](CCC(N)=O)NC(=O)[C@@H]2CCCN2C(=O)[C@@H]2CCCN2C1=O [Ex. 142] (HELM PEPTIDE1{[O=C([C@H](CCc1ccccc1)N[*:1])[*:2]].Q.T.A.S.I.P.P.Q.T.Y.[dP].P}$PEPTIDE1,PEPTIDE1,1:R1-13:R2$$$V2.0)', 'Elastase from human neutrophils (Homo sapiens, UniProt P08246)', 'pIC50', 7.80);

Please turn your attention to the following entry.
Given the compound CC[C@H](C)[C@@H]1NC(=O)[C@H](CO)NC(=O)[C@H](C)NC(=O)[C@H]([C@@H](C)O)NC(=O)[C@@H]2CSSC[C@H](NC(=O)[C@H](CCC(N)=O)NC(=O)[C@@H]3CCCN3C(=O)[C@@H]3CCCN3C1=O)C(=O)N[C@@H](Cc1ccc(O)cc1)C(=O)N1CCC[C@@H]1C(=O)N1CCC[C@H]1C(=O)N[C@@H](CCc1ccccc1)C(=O)N2 [Ex. 103] (HELM PEPTIDE1{[O=C([C@H](CCc1ccccc1)N[*:1])[*:2]].C.T.A.S.I.P.P.Q.C.Y.[dP].P}$PEPTIDE1,PEPTIDE1,2:R3-10:R3|PEPTIDE1,PEPTIDE1,1:R1-13:R2$$$V2.0) , what is its reported pIC50?
7.74
